experiment: Pharmacokinetic study, back of the eye drug exposure after topical instillation of MPP; assay type: in vivo, Dutch-belted rabbits; details: Dutch-belted, rabbit, retina, topical or ocular, 50 μL of 0.5% MPP; MPP 0.5%, 50 μL topical, BID 5 days; 8 mm round punch; read-out: AUC0-last Retina
Readout name: AUC(0-t) (µM·h)
Give the number; µM·h is assumed, so skip it.

Record "COc1cc2c(Oc3ccc4[nH]c(C)cc4c3F)ncnc2cc1OCCCN1CCC2(CC1)COC2" . Reported AUC(0-t): 1.15

----------
experiment: Pharmacokinetic study, back of the eye drug exposure after topical instillation of MPP; assay type: in vivo, Dutch-belted rabbits; conditions: Dutch-belted, rabbit, choroid, topical or ocular, 50 μL of 0.5% MPP; MPP 0.5%, 50 μL topical, BID 5 days; 8 mm round punch; read-out: Cmax Choroid
Readout name: Cmax (µM)
Respond numerically; units are µM and should not be typed.

Recorded result, "COc1cc2c(Oc3ccc4[nH]c(C)cc4c3F)ncnc2cc1OCCCN1CCC2(CC1)COC2" , Cmax: 3.9
